Assay: cells
Format: functional, cell-based
Active and inactive are the calls of the source.
Each entry below carries its recorded EC50.

| molecule | EC50 |
| --- | --- |
| CC1(OC(=O)c2cccs2)C(=O)C=C2C=C(C3CC3)OC=C2C1=O (centres undefined) | > 350 µM (not active) |
| Cc1cc([N+](=O)[O-])nn1Cc1ccc(C(=O)N/N=C/c2ccc(O)cc2O)cc1 | > 350 µM (not active) |
| Cc1cccc(/C=N/NC(=O)c2ccc3c(c2)OCCO3)c1O | 6.39 µM (active) |
| Cc1cc(Nc2ccccc2)cc(=O)n1C | > 350 µM (not active) |

###

Target: Luciferin 4-monooxygenase (Photinus pyralis, UniProt P08659)
Sequence (P08659 whole entry): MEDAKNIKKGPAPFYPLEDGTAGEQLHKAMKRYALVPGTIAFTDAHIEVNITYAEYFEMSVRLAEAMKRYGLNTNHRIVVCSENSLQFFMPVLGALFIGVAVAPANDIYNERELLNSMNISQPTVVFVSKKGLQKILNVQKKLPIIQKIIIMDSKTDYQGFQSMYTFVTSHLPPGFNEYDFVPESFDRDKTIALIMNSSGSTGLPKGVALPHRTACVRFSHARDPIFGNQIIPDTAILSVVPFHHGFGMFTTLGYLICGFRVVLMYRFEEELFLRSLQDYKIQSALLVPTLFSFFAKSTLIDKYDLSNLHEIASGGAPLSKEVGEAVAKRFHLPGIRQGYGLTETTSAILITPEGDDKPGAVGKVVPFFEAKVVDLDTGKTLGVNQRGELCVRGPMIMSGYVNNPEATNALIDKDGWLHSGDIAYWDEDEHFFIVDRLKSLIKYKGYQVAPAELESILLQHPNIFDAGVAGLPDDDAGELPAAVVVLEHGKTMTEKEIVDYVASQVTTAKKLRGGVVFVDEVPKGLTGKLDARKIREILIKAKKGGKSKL
Assay: inhibition of purified Photinus pyralis luciferase – biochemical, luminescence, dose response (AID 1891)
Calls of active or inactive are those of the source.

| molecule | EC50 |
| --- | --- |
| O=C(Nc1ccccc1C(=O)N/N=C/c1ccco1)c1ccc(Cl)cc1 | 0.192 µM (active) |
| Nc1cc(-c2ccccc2)nn1Cc1ccc(Cl)cc1 | > 112 µM (not active) |
| Nc1c(Cl)ncnc1N/N=C/c1ccc(O)cc1 | 7.55 µM (active) |
| COC(=O)c1ccccc1Oc1cc(C(F)(F)F)nc(-c2ccccn2)n1 | > 112 µM (not active) |
| COCCSc1ccccc1C(=O)Nc1ccc2c(c1)OCO2 | > 112 µM (not active) |
| CCOC(=O)CN1C(=O)C(O)=C(C(C)=O)C1c1ccc(F)cc1 (stereo unspecified) | > 112 µM (not active) |

###

Molecular target: Nonstructural protein 1 (Influenza A virus, UniProt Q194T2)
Sequence (Q194T2 whole entry): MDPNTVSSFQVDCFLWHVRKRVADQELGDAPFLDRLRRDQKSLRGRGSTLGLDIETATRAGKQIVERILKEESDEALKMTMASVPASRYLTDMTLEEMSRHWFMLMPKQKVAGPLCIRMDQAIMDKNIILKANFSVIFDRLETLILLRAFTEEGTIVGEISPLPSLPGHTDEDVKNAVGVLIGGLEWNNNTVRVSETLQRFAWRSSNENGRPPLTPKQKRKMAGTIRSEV
Assay type: functional, Influenza A virus (A/California/07/2009(H1N1))
Calls of active or inactive are those of the source.

| molecule | system_name | IC50 |
| --- | --- | --- |
| CN(C)c1ccc(NC(=O)Nc2ccc3snnc3c2)cc1 | Nonstructural protein 1 (Influenza A virus, UniProt Q194T2) | > 100 µM (active) |
| COc1cc(OC)c2c(-c3ccccc3)cc(=O)oc2c1C(CCN1CCCCC1)c1ccc(N(C)C)cc1 (configuration not stated) | Nonstructural protein 1 (Influenza A virus, UniProt Q194T2) | 11.9 µM (active) |
| Cc1ccc(C2C(/C=N/c3c(C)n(C)n(-c4ccccc4)c3=O)=C(c3ccccc3)Oc3ccccc32)cc1 (configuration not stated) | Nonstructural protein 1 (Influenza A virus, UniProt Q194T2) | > 100 µM (active) |
| ClC1=C(Cl)C(Cl)=C(Cl)C1=C/C=C/c1ccccc1 | Nonstructural protein 1 (Influenza A virus, UniProt Q194T2) | 33.6 µM (active) |
| CC1=C(C)/C(=N\OS(=O)(=O)c2ccccc2)C=CC1=O | Nonstructural protein 1 (Influenza A virus, UniProt Q194T2) | > 100 µM (active) |
| O=C1NC(=S)N(C2CC2)C(=O)/C1=C/NNC(=O)c1ccccc1Cl | Nonstructural protein 1 (Influenza A virus, UniProt Q194T2) | 20.4 µM (active) |
| C=CC(=O)Nc1ccc(N(C)c2ccnc(Nc3ccc(N4CCN(C)CC4)cc3)n2)cc1 | Nonstructural protein 1 (Influenza A virus, UniProt Q194T2) | 25.5 µM (active) |

###

Each entry below carries its recorded AC50.
Assay: P. falciparum Dd2 growth inhibitors, dose response, SYBR Green, cherry-picked samples (AID 1159567)
Format: functional, cell-based
Active and inactive are the calls of the source.
quantity: AC50

| input_smiles | observed_result |
| --- | --- |
| N#Cc1cccc(-c2ccc([C@@H]3[C@@H]4CN(C(=O)C5CC5)C[C@H]3N4)cc2)c1 | 0.489 µM (active) |
| O=C(Cc1ccccn1)N1CCCCN2[C@@H](CO)[C@@H](c3ccc(C#Cc4ccccc4)cc3)[C@@H]2C1 | 4.71 µM (active) |
| COc1ccc2c3c(n(C)c2c1)[C@@H](CO)N(C(=O)c1ccc(F)cc1)CC31CN(CC2CCOCC2)C1 | 12.1 µM (active) |
| COc1ccc(C#Cc2ccc3c(c2)[C@H]2[C@H](CCN2C(=O)c2ccccn2)[C@@H](CO)N3)cc1 | 3.75 µM (active) |
| COc1ccc(NC(=O)Nc2cccc3c2O[C@H](CN(C)C(=O)Nc2cccc4ccccc24)[C@H](C)CN([C@@H](C)CO)C3=O)cc1 | 2.54 µM (active) |
